Reported Inhibition values for the following compounds.
Test system: Cryptococcus neoformans
APPLIED CONDITIONS: Concentration 32 ug.mL-1; ASSAY_TEST Inhibition of Fungal Growth; detection method Resazurin; Absorption (OD600-OD570); plate type 384well; NBS; CORNING #3640
Description: Antifungal activity against Cryptococcus neoformans H99 ATCC 208821 (CO-ADD:FG_002); MIC in YNB media using NBS plates, by Resazurin OD(600-570)
Measured potencies and affinities stand elsewhere.
Just the number please, in %, no unit attached.

{"SMILES ENTRY": "COc1ccc(-c2cc3c4nn(CC(=O)Nc5ccc(C)c(C)c5)c(=O)n4ccn3n2)cc1", "MEASURED TARGET": "Cryptococcus neoformans", "UNIT ANNOTATION": "%", "OBSERVED RESULT": -15.38}

Prompt: Find the recorded Inhibition belonging to "C=Cc1ccc(Cn2nc3c(=O)n(-c4ccc(C)c(C)c4)ccn3c2=O)cc1" and report it.
Completion: -5.84

Prompt: Field entry: "Cc1cccc(Sc2nc3ccccc3n3c(=O)n(CC(=O)Nc4c(C)cc(C)cc4C)nc23)c1"
Completion: -23.88

Prompt: Field entry: "CCc1ccc(N(Cc2ccccc2)S(=O)(=O)c2cccn3c(C)nnc23)cc1"
Completion: -9.98

Prompt: Field entry: "Cc1cc2nn(CC(=O)Nc3ccc(F)c(F)c3)c(=O)n2c(Nc2ccc(C)c(F)c2)n1"
Completion: -7.92

Prompt: Field entry: "COc1cccc(CN(c2cccc(F)c2)S(=O)(=O)c2ccc3nnc(C)n3c2)c1"
Completion: -1.07

Prompt: Field entry: "O=C(Cn1nc2ccc(SCc3ccc(Cl)cc3)nn2c1=O)Nc1ccccc1C(F)(F)F"
Completion: -11.3

Prompt: Field entry: "CCOc1ccccc1NC(=O)Cn1nc2c3cc(-c4ccc(Cl)cc4)nn3ccn2c1=O"
Completion: -13.93

* * *

Tested on: Klebsiella pneumoniae
APPLIED CONDITIONS: Concentration 32 ug.mL-1;; ASSAY_TEST Inhibition of Bacterial Growth; detection method Absorption (OD600); MEDIA CAMHB; plate type 384well; NBS; CORNING #3640; time 18 hr
Description: Antibacterial activity against Klebsiella pneumoniae MDR ATCC 70063 (CO-ADD:GN_003); MIC in CAMBH media using NBS plates, by OD(600)
Measured potencies and affinities stand elsewhere.
PROPERTY MEASURED: Inhibition (%)
Just the number please, in %, no unit attached.

{"SMILES ENTRY": "CC(C)Cn1c(=O)c2ccc(C(=O)NC3CCCC3)cc2n2c(=O)n(CC(=O)NC3CCCCC3)nc12", "UNIT ANNOTATION": "%", "Inhibition": 4.14}
{"SMILES ENTRY": "O=C(Cn1nc2c(N3CCOCC3)nccn2c1=O)NCc1ccccc1Cl", "UNIT ANNOTATION": "%", "Inhibition": 10.56}
{"SMILES ENTRY": "CCCn1c(=O)c2sccc2n2c(=O)n(Cc3ccc(Cl)cc3)nc12", "UNIT ANNOTATION": "%", "Inhibition": 4.43}

Query compound follows.
Prompt: Find the recorded Inhibition belonging to "COc1ccccc1CNC(=O)Cn1nc2c(N3CCCCCC3)nccn2c1=O" and report it.
Completion: 8.05

* * *

Test system: Candida albicans
APPLIED CONDITIONS: Concentration 32 ug.mL-1; ASSAY_TEST Inhibition of Fungal Growth; detection method Absorption (OD530)
Description: Antifungal activity against Candida albicans ATCC 90028 (CO-ADD:FG_001); MIC in YNB media using NBS plates, by OD630
Potency and affinity values are given separately.
# cutoff 2% applies to Inhibition; >= gives true, < gives false

{"SMILES ENTRY": "CCOc1ccc(-n2ccn3c(SCC(=O)Nc4ccc(CC)cc4)nnc3c2=O)cc1", "QUALITATIVE LABEL": "true"}

Prompt: Does the reported Inhibition for "O=C(Cn1nc2nc(Nc3ccc(F)cc3)ccn2c1=O)Nc1ccc(F)cc1" fall at or above the 2% mark?
Completion: true

Prompt: Field entry: "O=S(=O)(c1cccn2cnnc12)N(Cc1cccc(Cl)c1)c1cc(F)cc(F)c1"
Completion: false

Prompt: Field entry: "Cc1ccc(NC(=O)Cn2nc3c(SCc4ccc(Cl)cc4)nccn3c2=O)cc1F"
Completion: true

Prompt: Field entry: "Cc1ccc(-c2ccc3nn(CC(=O)Nc4ccc(Cl)c(C(F)(F)F)c4)c(=O)n3n2)cc1C"
Completion: true

Prompt: Field entry: "CC(C)(C)NC(=O)Cn1nc2n(Cc3ccco3)c(=O)c3sccc3n2c1=O"
Completion: false
